Molecular target: T1, TEM-1 in a native state on aortic smooth muscle cells (AoSMC) (UniProt Q9HCU0 18-757, limits assumed)
T1 construct: whole, on cells; also called tumor endothelial marker 1; endosialin
T1 sequence (looked up): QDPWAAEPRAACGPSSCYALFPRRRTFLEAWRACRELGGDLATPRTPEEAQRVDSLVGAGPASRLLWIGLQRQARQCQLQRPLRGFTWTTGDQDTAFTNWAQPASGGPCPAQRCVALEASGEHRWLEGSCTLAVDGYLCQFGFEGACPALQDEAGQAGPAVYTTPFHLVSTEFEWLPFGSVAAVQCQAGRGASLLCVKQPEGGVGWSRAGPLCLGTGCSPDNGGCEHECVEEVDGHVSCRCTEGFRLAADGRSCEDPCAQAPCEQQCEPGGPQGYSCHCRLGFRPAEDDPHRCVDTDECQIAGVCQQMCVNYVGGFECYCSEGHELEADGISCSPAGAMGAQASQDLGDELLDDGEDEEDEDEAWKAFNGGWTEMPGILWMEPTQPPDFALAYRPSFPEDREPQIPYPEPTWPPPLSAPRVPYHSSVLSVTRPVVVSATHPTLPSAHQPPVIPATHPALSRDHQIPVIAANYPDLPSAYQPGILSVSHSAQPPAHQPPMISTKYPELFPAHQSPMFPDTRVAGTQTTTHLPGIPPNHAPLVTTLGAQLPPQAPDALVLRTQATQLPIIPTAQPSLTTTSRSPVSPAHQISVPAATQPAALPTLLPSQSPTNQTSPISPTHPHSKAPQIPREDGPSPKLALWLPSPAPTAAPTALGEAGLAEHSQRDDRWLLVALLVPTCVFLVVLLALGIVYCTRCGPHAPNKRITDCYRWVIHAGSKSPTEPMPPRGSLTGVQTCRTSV
Assay: flow cytometry on AoSMC, 10 µg/mL antibody, FITC goat anti-rat secondary; cells only 2.5, secondary only 3.5
measure: Geometric mean of resulting FACS plot
Format: numeric value only, no unit, no commentary.

Field: example entries. Status: answers known.
binder	Geometric mean of resulting FACS plot
Antibody 9G5 (antibody, V domains shown, Rat monoclonal antibody from hybridoma, IgG1/kappa; also called 9G5.F2.C1.F4; anti-TEM-1 clone 9G5) VH: EVKLEESGGGLVQPGMSVKLSCATSGFTFSDYWMEWVRQAPGKGLEWVAEIRNKLNNYVTNYGKPVRGRFTISRDDSKSIVYLQVNSIRSEDTGIYYCTRIQRVITTGEYFDYWGQGVMVTVSS VL: DIQMTQSPSLLSASEGDRVTLSCKASQNIYKYLNWYQQKLGEAPKLLIYNINNLQTGIPSRFSGSGSGTDFTLTISSLQPEDVATYYCYQYNSGRAFGGGTKLELK	57.4
Antibody 16D2 (antibody, V domains shown, Rat monoclonal antibody from hybridoma, IgG2a/kappa; also called 16D2.H12.E7.G9; ATCC PTA-12544) VH: EVQLVESGGGLVQPGRSMKLSCSASGFIFRNYYMAWVRQAPTKGLEWVASTGTGGDFTYYRDSVKGRFTISRDTAESTLYLQMDSLKSEDTATYYCARAYGYFDYWGQGVKVTVSS VL: DIVLTQSPTTLSVTPGETVSLSCRASHSVGTNLHWYQQKTNESPRLLIKYVSQSNSGIPSRFSASGSGTDFTLNIKDVEFDDVSSYFCQQTQSWPLTFGSGTKLEIK	98
Antibody 15F8 (antibody, V domains shown, Rat monoclonal antibody from hybridoma, IgG2a/kappa; also called 15F8.G6.B4; ATCC PTA-12540) VH: EVQLVESGGGLVQPGRSMKLSCSASGFTFRNYYMAWVRQAPTRGLEWVASTGTGGDFTYYRDSVKGRFTISRDTAENTLYLQMDSLRSEDTATYYCARAYGYFDYWGQGVKVTVSS VL: DIVLTQSPTTLSVTPGETVSLSCRASHSVGTNLHWYQQKPNESPRLLIKYVSQSNSGIPSRFSASGSGTDFTLNIKNVEFNDVSSYFCQQTQSWPLTFGAGTKLEIK	72.5

Read the next record carefully.
Data request: Looking for the measured Geometric mean of resulting FACS plot of Antibody 11D1 (antibody, V domains shown, Rat monoclonal antibody from hybridoma, IgG2a/kappa; also called 11D1.G10.F8; ATCC PTA-12541) VH: EVQLVESDGGLVQPGRSLKLSCAASGFSFSDYYMAWVRQAPTKGLEWVATISYDGSGSYYRDSVKGRFTVSRDNAKTTLYLQMDSLRSEDTATYYCARGGGLDYWGQGVMVTVSS VL: DNVLTQAPLAVSVTPGESASISCRSSKSLLSIEGINSLYWYLQKPGKSPQLLLFRMSNLASGVPDRFSGSGSETDFTLKISQVETEDVGVYYCAQFLEFPFTFGSGTKLEIK , can you help?
Data returned: 46.3

Data provenance is patent US20150337051A1.
